# credit: PubChem BioAssay AID1996

- Settings: buffer; pH 7.4; 200.0 µM
Respond with Criterion met for solubility kinetic values of 9 µg/mL and above, Criterion not met for values below.

Past entries and their recorded results:
[
  {
    "Compound": "Cc1ccc2oc(=O)n(CC(=O)N3CCOCC3)c2c1",
    "Cat": "Criterion met"
  },
  {
    "Compound": "N/C(=N\\OCC(=O)Nc1ccc(F)c(Cl)c1)c1ccccc1",
    "Cat": "Criterion met"
  }
]

Determine whether this compound has solubility kinetic no lower than 9 µg/mL: COc1ccc(/C=C/C2=CC(C)(C)NC(=S)N2)cc1
Criterion met

Hi, just wondering whether CN1CCN(C(=O)CC2(CC(=O)O)CCCC2)CC1.Cl shows solubility kinetic of 9 µg/mL or higher.
Criterion met

Assess whether reported solubility kinetic for O=C(/C=C/c1cccs1)N1CCN(c2ccccc2)CC1 sits at 9 µg/mL or higher.
Criterion not met

Quick check, solubility kinetic >= 9 µg/mL? O=C(NCC(c1cccs1)N1CCOCC1)c1cc2ccccc2oc1=O (centres undefined)
Criterion met

Hi team, for COC1=C(N)C(=O)c2nc(-c3nc(C(=O)O)c(C)c(-c4ccc(OC)c(OC)c4O)c3N)ccc2C1=O , is the recorded solubility kinetic at or above 9 µg/mL?
Criterion met
